These compounds were tested on UniProt P00915; pKi is the recorded read-out.
Sequence (P00915 whole entry): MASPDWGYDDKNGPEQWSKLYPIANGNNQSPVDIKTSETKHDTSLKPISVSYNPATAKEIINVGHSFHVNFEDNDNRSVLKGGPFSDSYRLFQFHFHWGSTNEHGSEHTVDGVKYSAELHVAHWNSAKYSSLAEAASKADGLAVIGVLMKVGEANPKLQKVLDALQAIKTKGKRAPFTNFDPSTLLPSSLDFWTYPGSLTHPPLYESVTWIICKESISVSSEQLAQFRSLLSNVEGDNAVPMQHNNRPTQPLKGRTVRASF
Give bare numbers, as −log10 of the molar value.

Study these solved cases before continuing.
CC(=O)OC[C@H]1OC(NS(=O)(=O)NO)C=C[C@@H]1OC(C)=O (stereo partly specified); 6.09
O=S(=O)(NO)NC1C=C[C@@H](O)[C@@H](CO)O1 (stereo partly specified); 6.04

# evaluate next
Data point: CC(=O)OC[C@H]1OC(NS(=O)(=O)NO)C=C[C@H]1OC(C)=O (stereo partly specified) ; pKi = 6.12

----------
Molecular target: Carbonic anhydrase 9 (Homo sapiens)
Assay: Inhibition of human recombinant CA9 catalytic domain by stopped flow CO2 hydration assay
test-readout: pKi
Give bare numbers, as −log10 of the molar value.

Study these solved cases before continuing.
CC(=O)O[C@H]1C=CC(NS(=O)(=O)NO)OC1 (stereo partly specified); 7.27
C[C@@H]1OC(NS(=O)(=O)NO)C=C[C@H]1O (stereo partly specified); 8.10
O=S(=O)(NO)NC1C=C[C@@H](O)[C@@H](CO)O1 (stereo partly specified); 7.36
O=S(=O)(NO)NC1C=C[C@@H](O)CO1 (stereo partly specified); 8.05
O=S(=O)(NO)NC1C=C[C@H](O)[C@@H](CO)O1 (stereo partly specified); 8.05

# evaluate next
Data point: CC(=O)O[C@@H]1C=CC(NS(=O)(=O)NO)OC1 (stereo partly specified) ; pKi = 7.36

Data provenance: ChEMBL document CHEMBL3352092
